Tested on: KM12
measurement-notes: NCI tumour cell line growth inhibition, 48 h
Activity calls are given as the source filed them. No stated cut-off is given here; in the data, active = GI50 up to about 1.1 µM and inactive = higher.

| compound | GI50 |
| --- | --- |
| CCOC1c2nc3ccccc3nc2-c2ccccc2N1C(C)=O (stereo not drawn) | > 100 µM (inactive) |
| Nc1c(-c2ccccc2)c2ccc([N+](=O)[O-])cc2c(=O)n1-c1cccc(C(=O)O)c1 | > 100 µM (inactive) |
| CSc1nc(C#N)c(N)n1C | > 100 µM (inactive) |
| C=C=C(C(=O)OC)[S+]([O-])c1ccccc1[N+](=O)[O-] (stereo not drawn) | > 100 µM (inactive) |
| O=C1c2ccoc2C(=O)c2oc(=O)ccc21 | > 42 µM (inactive) |
| Nc1cccc2c1C(=O)c1cccc(N)c1C2=O | > 100 µM (inactive) |
| N/N=C1\C(OC(=O)Nc2ccccc2)=Nc2ccccc21 | 13.1 µM (inactive) |
| COc1ccccc1C1c2cc3c(cc2OC(N2CCOCC2)C1C)OCO3 (stereo not drawn) | 16.4 µM (inactive) |
| O=S(=O)(c1cc(Cl)ccc1Cl)N1CCN(S(=O)(=O)c2cc(Cl)ccc2Cl)CC1 | > 100 µM (inactive) |
| O=c1[nH]nc(Cc2ccccc2)n1CCCl | > 100 µM (inactive) |
| c1ccc2c(Cc3c[nH]c4ccccc34)c[nH]c2c1 [ARUNDINE] | 19.1 µM (inactive) |
| CN1c2ccccc2C(=O)NC12CCN(Cc1ccccc1)CC2 | 46 µM (inactive) |
| CC(O)C1(CNc2cc(Cl)nc(N)n2)CC(CCc2ccccc2)C1 (stereo not drawn) | 14.5 µM (inactive) |
| CC(=NNC(=S)Nc1ccccc1)c1cccc(C(C)=NNC(=S)Nc2ccccc2)n1 | 3.38 µM (inactive) |
| CCCCCCCCCCCC(=O)c1c(O)cccc1O | 16 µM (inactive) |
| COP(=O)(OC)OCN(C)CC/C=C(\C)CC/C=C(\C)CCC=C(C)C | 15.2 µM (inactive) |
| CCOC(=O)c1csc(NC(=O)CN2CCOCC2)n1 | > 100 µM (inactive) |
| CN(C)CCNC(=O)c1cccc2ccc(-c3ccncc3)nc12 | 3.67 µM (inactive) |
| COc1c2nc(CCl)[nH]c(=O)c2c(OC)c2nc(CCl)[nH]c(=O)c12 | > 100 µM (inactive) |
| O=C(c1ccc(Cl)c(Cl)c1)N(Cc1cccnc1)C(=S)N(Cc1cccnc1)C(=O)c1ccc(Cl)c(Cl)c1 | 28.1 µM (inactive) |
| COC(=N)C12C(N)=NC(OC)(OC)C1(C#N)C21C(=O)N(c2ccccc2)N=C1C (stereo not drawn) | > 100 µM (inactive) |
| Cc1ccccc1N(CC(=O)O)S(=O)(=O)c1ccccc1 | > 100 µM (inactive) |
| O=C1CCC(=O)N1CNc1ccc2c(c1)Sc1ccccc1O2 | 36.7 µM (inactive) |

----------
List of GI50 tested on HCT-15.

| molecule | GI50 |
| --- | --- |
| Cc1cc2c(O)c(c1)COCc1cc(C)cc(c1O)COCc1cc(C)cc(c1O)COC2 | > 100 µM |
| c1ccc2sc(SCCSc3nc4ccccc4s3)nc2c1 | > 100 µM |
| COc1cc2c(cc1O)C(=O)O[C@@H]1CC=C3CCN(C)[C@H]3[C@H]21 | > 25 µM |
| C=CCNC(=O)N(CCCC(NC(C)=O)C(=O)NCc1ccccc1)Cc1ccccc1 (stereo not given) | > 100 µM |
| O=c1[nH]c2cc(-c3ccccc3)nc-2nn1-c1c(Cl)cc(Cl)cc1Cl | 36 µM |
